- System: histone 2A phosphorylation (kinase activity of Bub1)
- TEST_NAME: H2A Formation-Assay (cell-based mechanistic assay, co-treatment with Nocodazole)
- REPORTED_CONDITIONS: 16 h, read-out: Biological Assay 4.1: H2A Formation IC50
pIC50: −log10 of the molar value.

[
  {
    "QUERY_SMILES": "CCOc1cc(F)c(Cn2nc(-c3ncc(OCCCO)c(Nc4ccncc4Cl)n3)c3ccccc32)c(F)c1",
    "pIC50": 7.35
  },
  {
    "QUERY_SMILES": "CCOc1cc(F)c(Cn2nc(-c3ncc(OCCCO)c(Nc4ccnc(C)n4)n3)c3ccccc32)c(F)c1",
    "pIC50": 7.06
  },
  {
    "QUERY_SMILES": "CCOc1cc(F)c(Cn2nc(-c3ncc(OCCCO)c(Nc4cc(C)nc(C)n4)n3)c3ccccc32)c(F)c1",
    "pIC50": 8.06
  },
  {
    "QUERY_SMILES": "CCOc1cc(F)c(Cn2nc(-c3ncc(OCCCO)c(Nc4ccncn4)n3)c3ccccc32)c(F)c1",
    "pIC50": 6.77
  },
  {
    "QUERY_SMILES": "CCOc1cc(F)c(Cn2nc(-c3ncc(OCCCO)c(Nc4ccnc(NC(C)=O)c4)n3)c3ccccc32)c(F)c1",
    "pIC50": 7.55
  }
]

---

- TEST_NAME: Stability in buffer at various pH values (HPLC detection)
- Assay type: physicochemical
- REPORTED_CONDITIONS: Time 60 min; read-out: Recovery (Assay 6, prodrug stability)
// recovery at 60 min, 0.2 mg/mL lookup, one value per entry
QUANTITY_NAME: recovery at 60 min, 0.2 mg/mL (%)

[
  {
    "QUERY_SMILES": "CCOc1cc(F)c(Cn2nc(-c3ncc(OCCCOC(=O)[C@H](C)NC(=O)[C@@H](N)CCCNC(=N)N)c(Nc4ccnc(NC(C)=O)c4)n3)c3ccccc32)c(F)c1",
    "RECORDED_VALUE": 86
  },
  {
    "QUERY_SMILES": "CCOc1cc(F)c(Cn2nc(-c3ncc(OCCCOC(=O)[C@H](C)NC(=O)[C@H](N)CCCCN)c(Nc4ccnc(NC(C)=O)c4)n3)c3ccccc32)c(F)c1",
    "RECORDED_VALUE": 75
  },
  {
    "QUERY_SMILES": "CCOc1cc(F)c(Cn2nc(-c3ncc(OCCCOC(=O)[C@H](C)NC(=O)[C@@H](N)CCCCN)c(Nc4ccncc4Cl)n3)c3ccccc32)c(F)c1",
    "RECORDED_VALUE": 81
  },
  {
    "QUERY_SMILES": "CCOc1cc(F)c(Cn2nc(-c3ncc(OCCCOC(=O)[C@H](C)NC(=O)[C@@H](N)CCCCN)c(Nc4ccnc(C(F)F)c4)n3)c3ccccc32)c(F)c1",
    "RECORDED_VALUE": 76
  }
]

---

- TARGET_OR_TEST_SYSTEM: (recombinant) catalytic domain of human Bub1 (amino acids 704-1085) (Homo sapiens, UniProt O43683)
- Construct: catalytic domain of human Bub1 (amino acids 704-1085); 6xHis (N); made in house; host or cells: Hi5 insect cells
- TEST_NAME: Equilibrium probe competition assay (TR-FRET kinase binding assay)
- REPORTED_CONDITIONS: Time 1440 min; read-out: IC50 (Assay 5, probe competition)
QUANTITY_NAME: IC50

[
  {
    "QUERY_SMILES": "CCOc1cc(F)c(Cn2nc(-c3ncc(OCCCOC(=O)[C@H](C)NC(=O)[C@@H](N)CCCNC(=N)N)c(Nc4ccnc(NC(C)=O)c4)n3)c3ccccc32)c(F)c1",
    "QUANTITY_NAME": "IC50",
    "RECORDED_VALUE": "0.33 nM"
  },
  {
    "QUERY_SMILES": "CCOc1cc(F)c(Cn2nc(-c3ncc(OCCCOC(=O)[C@H](C)NC(=O)[C@H](N)CCCCN)c(Nc4ccnc(NC(C)=O)c4)n3)c3ccccc32)c(F)c1",
    "QUANTITY_NAME": "IC50",
    "RECORDED_VALUE": "0.17 nM"
  },
  {
    "QUERY_SMILES": "CCOc1cc(F)c(Cn2nc(-c3ncc(OCCCOC(=O)[C@H](C)NC(=O)[C@@H](N)CCCCN)c(Nc4ccnc(C(F)F)c4)n3)c3ccccc32)c(F)c1",
    "QUANTITY_NAME": "IC50",
    "RECORDED_VALUE": "2 nM"
  }
]

---

- TARGET_OR_TEST_SYSTEM: (recombinant) catalytic domain of human Bub1 (amino acids 704-1085) (Homo sapiens, UniProt O43683)
- Construct: catalytic domain of human Bub1 (amino acids 704-1085); 6xHis (N); made in house; host or cells: Hi5 insect cells
- TEST_NAME: Equilibrium probe competition assay (TR-FRET kinase binding assay)
- REPORTED_CONDITIONS: Time 90 min; read-out: IC50 (Assay 5, probe competition)
Mark 1.0 for IC50 under 0.5 nM, 0.0 if at or over.

[
  {
    "COMPOUND": "CCOc1cc(F)c(Cn2nc(-c3ncc(OCCCOC(=O)[C@H](C)NC(=O)[C@@H](N)CCCNC(=N)N)c(Nc4ccnc(NC(C)=O)c4)n3)c3ccccc32)c(F)c1 [Example 4-1-4]",
    "CLASS_NAME": 0.0
  },
  {
    "COMPOUND": "CCOc1cc(F)c(Cn2nc(-c3ncc(OCCCO)c(Nc4ccncc4Cl)n3)c3ccccc32)c(F)c1 [Example 2-1-6]",
    "CLASS_NAME": 0.0
  },
  {
    "COMPOUND": "CCOc1cc(F)c(Cn2nc(-c3ncc(OCCCO)c(Nc4ccnc(NC(C)=O)c4)n3)c3ccccc32)c(F)c1 [Example 2-1-5]",
    "CLASS_NAME": 1.0
  },
  {
    "COMPOUND": "CCOc1cc(F)c(Cn2nc(-c3ncc(OCCCOC(=O)[C@H](C)NC(=O)[C@H](N)CCCCN)c(Nc4ccnc(NC(C)=O)c4)n3)c3ccccc32)c(F)c1 [Example 4-1-3]",
    "CLASS_NAME": 1.0
  },
  {
    "COMPOUND": "CCOc1cc(F)c(Cn2nc(-c3ncc(OCCCOC(=O)[C@H](C)NC(=O)[C@@H](N)CCCCN)c(Nc4ccnc(C(F)F)c4)n3)c3ccccc32)c(F)c1 [Example 4-1-1]",
    "CLASS_NAME": 0.0
  }
]

---

- TARGET_OR_TEST_SYSTEM: (recombinant) catalytic domain of human Bub1 (amino acids 704-1085) (Homo sapiens)
- Construct: catalytic domain of human Bub1 (amino acids 704-1085); 6xHis (N); made in house; host or cells: Hi5 insect cells
- TEST_NAME: Equilibrium probe competition assay (TR-FRET kinase binding assay)
- REPORTED_CONDITIONS: Time 240 min; read-out: IC50 (Assay 5, probe competition)
- Experimental: Equilibrium Probe Competition Assay: […] In a typical assay 11 different concentrations of each compound (0.1 nM, 0.33 nM, 1.1 nM, 3.8 nM, 13 nM, 44 nM, ˜0.15 μM, ˜0.51 μM, ˜1.7 μM, 5.9 μM and 20 μM) were tested in duplicate within the same microtiter plate. […] IC50 values were calculated by fitting the normalized inhibition data to a 4-parameter logistic equation (Minimum, Maximum, IC50, Hill; Y=Max+(Min−Max)/(1+(X/IC50)Hill)).
pIC50: −log10 of the molar value.
QUANTITY_NAME: pIC50

[
  {
    "QUERY_SMILES": "CCOc1cc(F)c(Cn2nc(-c3ncc(OCCCOC(=O)[C@H](C)NC(=O)[C@@H](N)CCCCN)c(Nc4ccnc(C(F)F)c4)n3)c3ccccc32)c(F)c1",
    "RECORDED_VALUE": 8.82
  },
  {
    "QUERY_SMILES": "CCOc1cc(F)c(Cn2nc(-c3ncc(OCCCOC(=O)[C@H](C)NC(=O)[C@@H](N)CCCNC(=N)N)c(Nc4ccnc(NC(C)=O)c4)n3)c3ccccc32)c(F)c1",
    "RECORDED_VALUE": 9.49
  },
  {
    "QUERY_SMILES": "CCOc1cc(F)c(Cn2nc(-c3ncc(OCCCO)c(Nc4ccncc4Cl)n3)c3ccccc32)c(F)c1",
    "RECORDED_VALUE": 9.51
  }
]

---

// recovery at 120 min, 0.2 mg/mL lookup, one value per entry
- TEST_NAME: Stability in buffer at various pH values (HPLC detection)
- Format: physicochemical
- REPORTED_CONDITIONS: Time 120 min; read-out: Recovery (Assay 6, prodrug stability)

[
  {
    "MOLECULE": "CCOc1cc(F)c(Cn2nc(-c3ncc(OCCCOC(=O)[C@H](C)NC(=O)[C@@H](N)CCCCN)c(Nc4ccncc4Cl)n3)c3ccccc32)c(F)c1 [Example 4-1-5]",
    "recovery at 120 min, 0.2 mg/mL": "65%"
  },
  {
    "MOLECULE": "CCOc1cc(F)c(Cn2nc(-c3ncc(OCCCOC(=O)[C@H](C)NC(=O)[C@@H](N)CCCNC(=N)N)c(Nc4ccnc(NC(C)=O)c4)n3)c3ccccc32)c(F)c1 [Example 4-1-4]",
    "recovery at 120 min, 0.2 mg/mL": "73%"
  },
  {
    "MOLECULE": "CCOc1cc(F)c(Cn2nc(-c3ncc(OCCCOC(=O)[C@H](C)NC(=O)[C@H](N)CCCCN)c(Nc4ccnc(NC(C)=O)c4)n3)c3ccccc32)c(F)c1 [Example 4-1-3]",
    "recovery at 120 min, 0.2 mg/mL": "56%"
  },
  {
    "MOLECULE": "CCOc1cc(F)c(Cn2nc(-c3ncc(OCCCOC(=O)[C@H](C)NC(=O)[C@@H](N)CCCCN)c(Nc4ccnc(C(F)F)c4)n3)c3ccccc32)c(F)c1 [Example 4-1-1]",
    "recovery at 120 min, 0.2 mg/mL": "57%"
  }
]
